Tested on: YAP-TEAD
testDetails: Luciferase assay of YAP-TEAD binding inhibition (TEAD luciferase reporter 8XGTIIC in HEK293T cells)
Type: cell-based
experimentalContext: 10 μM, 24 hours, luciferase normalized with β-galactosidase
The label depends only on Inhibition(%): class 1 if it is at least 60%, class 0 if it is smaller.

compound="CS(=O)(=O)N1CCC(CCN2C(=O)c3cccc4c(NC(=O)C5CCCN(S(=O)(=O)c6cccs6)C5)ccc2c34)CC1 (stereo not drawn)" targetentity=YAP-TEAD classassignment="class 1"
compound="COCCCN1C(=O)c2cccc3c(NC(=O)C4CCCN(S(=O)(=O)c5c(Cl)nc6sccn56)C4)ccc1c23 (stereo not drawn)" targetentity=YAP-TEAD classassignment="class 1"
compound="CS(=O)(=O)N1CCC(CCN2C(=O)c3cccc4c(NC(=O)C5CCCN(S(=O)(=O)c6ccco6)C5)ccc2c34)CC1 (stereo not drawn)" targetentity=YAP-TEAD classassignment="class 1"
compound="COCCCN1C(=O)c2cccc3c(NC(=O)C4CCCN(S(=O)(=O)c5c(C)n[nH]c5C)C4)ccc1c23 (stereo not drawn)" targetentity=YAP-TEAD classassignment="class 0"
compound="COCCCN1C(=O)c2cccc3c(NC(=O)C4CCCN(S(=O)(=O)c5ccc6c7c(cccc57)C(=O)N6)C4)ccc1c23 (stereo not drawn)" targetentity=YAP-TEAD classassignment="class 0"
compound="COCCCN1C(=O)c2cccc3c(NC(=O)C4CCCCN4S(=O)(=O)c4ccc(-c5ccccn5)s4)ccc1c23 (stereo not drawn)" targetentity=YAP-TEAD classassignment="class 1"
compound="CS(=O)(=O)N1CCC(CCN2C(=O)c3cccc4c(NC(=O)C5CCCCN5S(=O)(=O)c5ccc6c(c5)OCCO6)ccc2c34)CC1 (stereo not drawn)" targetentity=YAP-TEAD classassignment="class 1"
compound="O=C(Nc1ccc2c3c(cccc13)C(=O)N2CCS(=O)(=O)c1ccccc1)C1CCCCN1S(=O)(=O)c1ccc2c(c1)CCO2 (stereo not drawn)" targetentity=YAP-TEAD classassignment="class 1"
compound="O=C(Nc1ccc2c3c(cccc13)C(=O)N2Cc1ccccc1)C1CCCN1S(=O)(=O)c1cccs1 (stereo not drawn)" targetentity=YAP-TEAD classassignment="class 1"
compound="COCCCN1C(=O)c2cccc3c(NC(=O)C4CCCN(S(=O)(=O)c5ccc6c(c5)OCCO6)C4)ccc1c23 (stereo not drawn)" targetentity=YAP-TEAD classassignment="class 0"
compound="COCCCN1C(=O)c2cccc3c(NC(=O)C4CCCCN4S(=O)(=O)c4ccc(OC)c(OC)c4)ccc1c23 (stereo not drawn)" targetentity=YAP-TEAD classassignment="class 1"
compound="COCCCN1C(=O)c2cccc3c(NC(=O)C4CCCCN4S(=O)(=O)c4ccc(Cl)s4)ccc1c23 (stereo not drawn)" targetentity=YAP-TEAD classassignment="class 0"

---

Recorded Inhibition(%) by entry
System: YAP-TEAD
testDetails: Luciferase assay of YAP-TEAD binding inhibition (TEAD luciferase reporter 8XGTIIC in HEK293T cells)
Assay type: cell-based
experimentalContext: 10 μM, 24 hours, luciferase normalized with β-galactosidase
measuredProperty: Inhibition(%)

compound="COCCCN1C(=O)c2cccc3c(NC(=O)C4CCCCN4S(=O)(=O)c4ccc(N)cc4)ccc1c23 (centres unmarked)" measuredproperty=Inhibition(%) value=53
compound="COCCCN1C(=O)c2cccc3c(NC(=O)C4CCCCN4S(=O)(=O)c4cccc5nsnc45)ccc1c23 (centres unmarked)" measuredproperty=Inhibition(%) value=71
compound="COCCCN1C(=O)c2cccc3c(NC(=O)C4CCCN(S(=O)(=O)c5cccs5)C4)ccc1c23 (centres unmarked)" measuredproperty=Inhibition(%) value=81
compound="COCCCN1C(=O)c2cccc3c(NC(=O)C4CCCN(S(=O)(=O)c5ccc(Br)s5)C4)ccc1c23 (centres unmarked)" measuredproperty=Inhibition(%) value=87
compound="O=C(Nc1ccc2c3c(cccc13)C(=O)N2CCS(=O)(=O)c1ccccc1)C1CCCN(S(=O)(=O)c2ccc3c(c2)CCO3)C1 (centres unmarked)" measuredproperty=Inhibition(%) value=66
compound="COCCCN1C(=O)c2cccc3c(NC(=O)C4CCCN(S(=O)(=O)c5csc6ccccc56)C4)ccc1c23 (centres unmarked)" measuredproperty=Inhibition(%) value=87
compound="CN(CCCN1C(=O)c2cccc3c(NC(=O)C4CCCCN4S(=O)(=O)c4cccs4)ccc1c23)S(C)(=O)=O (centres unmarked)" measuredproperty=Inhibition(%) value=85
compound="COc1ccc(CCN2C(=O)c3cccc4c(NC(=O)C5CCCCN5S(=O)(=O)c5cccs5)ccc2c34)cc1 (centres unmarked)" measuredproperty=Inhibition(%) value=81
compound="COc1ccc(CCN2C(=O)c3cccc4c(NC(=O)C5CCCN(S(=O)(=O)c6cccs6)C5)ccc2c34)cc1 (centres unmarked)" measuredproperty=Inhibition(%) value=61
compound="COCCCN1C(=O)c2cccc3c(NC(=O)C4CCCN(S(=O)(=O)c5ccc(OCCOC)c(C)c5)C4)ccc1c23 (centres unmarked)" measuredproperty=Inhibition(%) value=68
compound="COCCCN1C(=O)c2cccc3c(NC(=O)C4CCCN(S(=O)(=O)c5cc(Cl)sc5Cl)C4)ccc1c23 (centres unmarked)" measuredproperty=Inhibition(%) value=91
compound="COCCCN1C(=O)c2cccc3c(NC(=O)C4CCCN(S(=O)(=O)c5ccc(OCCN(C)C)c(C)c5)C4)ccc1c23 (centres unmarked)" measuredproperty=Inhibition(%) value=54
compound="CS(=O)(=O)N1CCC(CCN2C(=O)c3cccc4c(NC(=O)C5CCCCN5S(=O)(=O)c5cccs5)ccc2c34)CC1 (centres unmarked)" measuredproperty=Inhibition(%) value=99.2
compound="O=C(Nc1ccc2c3c(cccc13)C(=O)N2CCc1ccc(Cl)cc1Cl)C1CCCCN1S(=O)(=O)c1cccs1 (centres unmarked)" measuredproperty=Inhibition(%) value=100
